Target: hNET (Homo sapiens, UniProt P23975)
Construct: expressed in transfected cells
Sequence (P23975 whole entry): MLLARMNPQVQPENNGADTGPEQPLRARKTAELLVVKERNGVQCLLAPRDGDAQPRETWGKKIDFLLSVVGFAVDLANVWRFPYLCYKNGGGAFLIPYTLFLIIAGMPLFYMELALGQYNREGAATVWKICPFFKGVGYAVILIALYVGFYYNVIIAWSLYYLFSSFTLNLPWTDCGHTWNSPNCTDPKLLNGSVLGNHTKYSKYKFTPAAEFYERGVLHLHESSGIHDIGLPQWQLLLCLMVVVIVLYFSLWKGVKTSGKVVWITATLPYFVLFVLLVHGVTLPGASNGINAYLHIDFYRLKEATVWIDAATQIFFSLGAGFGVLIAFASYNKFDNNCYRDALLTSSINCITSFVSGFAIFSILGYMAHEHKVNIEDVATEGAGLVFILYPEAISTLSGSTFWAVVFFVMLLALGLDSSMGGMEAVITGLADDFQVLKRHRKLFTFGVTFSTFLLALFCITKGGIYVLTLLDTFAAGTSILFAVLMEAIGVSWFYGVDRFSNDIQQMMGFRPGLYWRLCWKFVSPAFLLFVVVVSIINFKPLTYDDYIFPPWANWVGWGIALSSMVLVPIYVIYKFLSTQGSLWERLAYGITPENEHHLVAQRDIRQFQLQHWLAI
Assay: Norepinephrine (NE) uptake assay in MDCK-Net6 cells stably transfected with human hNET
Assay type: cell-based
Conditions: MDCK-Net6, 1 μM test compound, [3H]NE uptake
Structures can show the parent of a compound that is named as a salt.
OUTCOME_MEASURE: inhibition at 1 µM (%)

Worked examples, 2 compounds total:
COMPOUND: N[C@H]1CCN(CC(c2cccc(OC(F)(F)F)c2)C2(O)CCCCC2)C1 (some centres unmarked) [Example 216, dihydrochloride]
OUTCOME_MEASURE: inhibition at 1 µM
OBSERVED_RESULT: 38.9

COMPOUND: CN[C@@H]1CCCN(CC(c2cccc(OC(F)(F)F)c2)C2(O)CCCCC2)C1 (some centres unmarked) [Example 186, dihydrochloride]
OUTCOME_MEASURE: inhibition at 1 µM
OBSERVED_RESULT: 50.4

(A) CN[C@@H]1CCN(CC(c2ccc(OCc3ccccc3)cc2)C2(O)CCCCC2)C1 (some centres unmarked) [Example 382, dihydrochloride]
(B) N[C@@H]1CCCN(CC(c2ccc(OCc3ccccc3)c(Cl)c2)C2(O)CCCCC2)C1 (some centres unmarked) [Example 193, dihydrochloride]
(C) CN[C@@H]1CCN(CC(c2ccc3ccccc3c2)C2(O)CCCCC2)C1 (some centres unmarked) [Example 376, dihydrochloride]
(D) CN(C)[C@H]1CCCN(CC(c2cccc(OC(F)(F)F)c2)C2(O)CCCCC2)C1 (some centres unmarked) [Example 191, dihydrochloride]
Input: Rank by inhibition at 1 µM (largest to smallest). Respond with the label ranking, as requested.
Output: B, A, C, D

(I) COc1ccc(C(CN2CCC(N3CCCCC3)CC2)C2(O)CCCCC2)cc1Cl (centres unmarked) [Example 458, dihydrochloride]
(II) CN[C@H]1CCN(CC(c2cccc(C(F)(F)F)c2)C2(O)CCCCC2)C1 (some centres unmarked) [Example 220, dihydrochloride]
(III) NC1CCN(CC(c2ccc(Oc3ccccc3)cc2)C2(O)CCCCC2)CC1 (centres unmarked) [Example 310, dihydrochloride]
Input: Rank by inhibition at 1 µM (largest to smallest). Respond with the label ranking, as requested.
Output: I, III, II
(I: 79%, III: 44.1%, II: 27.3%)

(a) N[C@H]1CCN(CC(c2cccc(C(F)(F)F)c2)C2(O)CCCCC2)C1 (some centres unmarked) [Example 221, dihydrochloride]
(b) CN[C@H]1CCN(CC(c2ccc(OCc3ccccc3)c(Cl)c2)C2(O)CCCCC2)C1 (some centres unmarked) [Example 209, dihydrochloride]
(c) N[C@@H]1CCN(CC(c2cccc(Cl)c2)C2(O)CCCCC2)C1 (some centres unmarked) [Example 201, dihydrochloride]
Input: Sort entries by inhibition at 1 µM from minimum to maximum value. Respond with the label ranking, as requested.
Output: c, a, b

(P) CN(C)[C@@H]1CCCN(CC(c2ccc(OCc3ccccc3)c(Cl)c2)C2(O)CCCCC2)C1 (some centres unmarked) [Example 194, dihydrochloride]
(Q) COc1ccc2cc(C(CN3CCC(N(C)C)CC3)C3(O)CCCCC3)ccc2c1 (centres unmarked) [Example 343, dihydrochloride]
Input: Of P and Q , which shows the smaller inhibition at 1 µM value? # respond with the chosen item's label
Output: Q
